experiment: qHTS for Inhibitors of Plasmodium falciparum (GB4) proliferation (AID 504315); note: nearly all actives have a fitted effect of over 50% in size; settings: P. falciparum GB4 in erythrocytes, SYBR Green DNA, 72 h; series mostly up to 6.7 µM
Records with an inconclusive call do not appear. Activity calls are given as the source filed them. Calls come from the whole dose curve; as a rule, active = well fitted inhibition curve with a large enough effect; inconclusive = small, poorly fitted or top-dose-only effect, or effect the other way; inactive = flat fitted curve, though single readings scatter.
Tick one outcome: T = active, F = inactive

Could you please tell me the result logged for O=C(NC(CC1=CCCCC1)c1ccc2ccccc2c1)C(F)(F)F (centres undefined) in this assay?
F

Could you please tell me the result logged for COC(=O)[C@H]1[C@H](C)[C@@]2(O)c3ccccc3N(C)[C@@]1(C)[C@H]2O in this assay?
F

Could you please tell me the result logged for CCCCc1nc2c(c3c1C[C@H](C)OC3)CN(C(=O)C1CCCCC1)CC2 in this assay?
F

Could you please tell me the result logged for CC1(OC(=O)C2CCCC2)C(=O)C=C2C=C(c3ccsc3)N(C3CC3)C=C2C1=O (centres undefined) in this assay?
F

Could you please tell me the result logged for O=P1(O)Oc2c(c(-c3ccccc3)cc3ccccc23)-c2c(-c3ccccc3)cc3ccccc3c2O1 in this assay?
F

Could you please tell me the result logged for C=CCN1c2ccccc2[C@]23CCC(=O)N(Cc4ccco4)C2=NC(C(=O)OC)=C(C(=O)OC)[C@H]13 in this assay?
F

Could you please tell me the result logged for COc1ccc([C@]23Cc4ccccc4[C@H](O2)C2=C(O3)C(=O)c3ccccc3C2=O)cc1 in this assay?
T

Could you please tell me the result logged for COc1cccc(CO[C@H]2C=C[C@@H](c3ccccc3)O[C@H]2CN=[N+]=[N-])c1 in this assay?
F

Could you please tell me the result logged for N#CCCCSc1nnnn1-c1cc(C(F)(F)F)cc(C(F)(F)F)c1 in this assay?
F

----------
experiment: qHTS for Inhibitors of Plasmodium falciparum (GB4) proliferation (AID 504315); note: nearly all actives have a fitted effect of over 50% in size; details: P. falciparum GB4 in erythrocytes, SYBR Green DNA, 72 h; series mostly up to 6.7 µM
Results filed as inconclusive are left out. Active and inactive are the calls of the source. Calls come from the whole dose curve; as a rule, active = well fitted inhibition curve with a large enough effect; inconclusive = small, poorly fitted or top-dose-only effect, or effect the other way; inactive = flat fitted curve, though single readings scatter.
Tick one outcome: y = active, n = inactive

Could you please tell me the result logged for CCOC(=O)CN1C(=O)[C@]2(O[C@H](C)CC3=CCCC32)c2c(Br)cccc21 (some centres not stated) in this assay?
n

Could you please tell me the result logged for C=CCOC(=O)NC(c1ccc(F)c(F)c1)C(C(C)=O)C(=O)OC (configuration not stated) in this assay?
n

Could you please tell me the result logged for COc1ccc(CN2C=C3C(=O)C(C)(OC(=O)C4CCCC4)C(=O)C=C3C=C2c2ccsc2)cc1 (configuration not stated) in this assay?
n

Could you please tell me the result logged for COc1ccc2c(c1)CO[C@H]([C@H](O)CBr)[C@H]2C=Cc1ccccc1 in this assay?
n

Could you please tell me the result logged for O=C1[C@@H]2[C@H]3[C@H](O)[C@H](O)CC(=NOC[C@@H](O)COCc4ccco4)[C@H]3CC[C@H]2C(=O)N1c1ccc(F)cc1F in this assay?
n

Could you please tell me the result logged for COc1cccc(CO[C@H]2C=C[C@@H](c3ccccc3)O[C@H]2CO)c1 in this assay?
n

Could you please tell me the result logged for CC1(OC(=O)CCc2ccccc2)C(=O)C=C2C=C(c3ccc(C#N)cc3)N(CC3CC3)C=C2C1=O (configuration not stated) in this assay?
n

Could you please tell me the result logged for COC(=O)C1=C(C)N(CCc2cc(OC)c(OC)c(OC)c2)C(=O)NC1c1ccc(Br)cc1 (configuration not stated) in this assay?
n

Could you please tell me the result logged for CC1(OC(=O)c2cccs2)C(=O)C=C2C=C(c3ccsc3)OC=C2C1=O (configuration not stated) in this assay?
n

Could you please tell me the result logged for C=CCCN1C=C(C(=O)OCC)C(c2ccccc2)NC1=O (configuration not stated) in this assay?
n

Could you please tell me the result logged for COC(=O)[C@@H]1CC[C@H](C)[C@@H](c2ccc(C)cc2)N1C(=O)c1ccc(C=NOC[C@@H](O)COCc2ccco2)cc1 in this assay?
n

Could you please tell me the result logged for COC(=O)CC=C[C@@H](C)[C@H](NC(=O)OCC(Cl)(Cl)Cl)c1ccccc1 in this assay?
n

Could you please tell me the result logged for C[C@@H]1CC2=CCCC2[C@]2(O1)C(=O)Nc1cccc(Br)c12 (some centres not stated) in this assay?
n

Could you please tell me the result logged for COc1cc2c(cc1OC)[C@@]1(c3ccccc3)CCCC[C@H]1[C@@H]2NC(=O)C(F)(F)F in this assay?
n

Could you please tell me the result logged for CCOC(=O)[C@@]1([C@@H](NC(=O)OC)c2ccco2)CCCC1=O in this assay?
n

Could you please tell me the result logged for CCCNC(=O)OC[C@H]1O[C@H](CCON=CC[C@@H]2C=C[C@H](OC(C)=O)[C@@H](COC(C)=O)O2)C=C[C@H]1Oc1ccc(OC)cc1 in this assay?
n

Could you please tell me the result logged for C=C(C(C)=O)C(O)c1cccc(OC)c1 (configuration not stated) in this assay?
n

Could you please tell me the result logged for COC(=O)[C@@H]1[C@@H](c2ccccc2)NC(=O)N(CCc2cc(OC)c(OC)c(OC)c2)[C@@H]1C in this assay?
n

Could you please tell me the result logged for CCN1C(=NCc2cc(OC)c(OC)c(OC)c2)NC(c2ccccc2)C(C(=O)OC)=C1C (configuration not stated) in this assay?
n

Could you please tell me the result logged for COCCN1C(=O)NC(c2ccco2)C(C(=O)OC)=C1C (configuration not stated) in this assay?
n

Could you please tell me the result logged for COCCN1C(=O)NC(c2ccc(Br)cc2)C(C(=O)OC)=C1C (configuration not stated) in this assay?
n

Could you please tell me the result logged for Cc1cc(O)cc(O)c1C(=O)OC1(C)C(=O)C=C2C=C(C=CC(=O)O)OC=C2C1=O (configuration not stated) in this assay?
n

Could you please tell me the result logged for COCCN1C(=O)CC[C@@]23C1=NC(C(=O)OC)=C(C(=O)OC)[C@@H]2N(C)c1ccccc13 in this assay?
n

Could you please tell me the result logged for C=CC[C@@]1(C(=O)OC)C=C[C@@H](C)[C@H](c2ccccc2Br)N1C(=O)C(F)(F)F in this assay?
n

Could you please tell me the result logged for c1ccc(CCc2nc(-c3ccccc3)oc2Nc2ccc3ccccc3c2)cc1 in this assay?
n

Could you please tell me the result logged for C[C@@H](c1ccccc1)N1C(=O)[C@@H]2[C@H]3[C@H](O)[C@H](O)CC(=NOC[C@@H](O)COCc4ccco4)[C@H]3CC[C@H]2C1=O in this assay?
n

Could you please tell me the result logged for O=C1N[C@H](Cc2ccccc2)C(=O)N1Cc1cccc2ccccc12 in this assay?
n

Could you please tell me the result logged for CCN1C(=S)NC(c2ccccc2)C(C(=O)OC)=C1C (configuration not stated) in this assay?
n

Could you please tell me the result logged for COC[C@@H](O)[C@H]1OCc2ccccc2[C@H]1C=Cc1ccccc1 in this assay?
n

Could you please tell me the result logged for COC(=O)N[C@@H](C=Cc1ccccc1)C(C(=O)OC)=C(C)NCc1ccccc1 in this assay?
y

Could you please tell me the result logged for CCCCC1=CC2=C(c3ccco3)C(=O)C(C)(OC(=O)c3ccc(OC)cc3)C(=O)C2=CN1CC1CC1 (configuration not stated) in this assay?
n

Could you please tell me the result logged for CCCCC#C[C@@H]1C=C[C@H](Oc2ccc(C(=O)OC)cc2)[C@@H](COC(=O)OCC)O1 in this assay?
n

Could you please tell me the result logged for C=C(C)CCN1C(=O)NC(c2cccc(C(F)(F)F)c2)C(C(=O)OC)=C1C (configuration not stated) in this assay?
n

Could you please tell me the result logged for COC(=O)c1ccc(CN2C(=O)C3(CC(C)=C[C@@H](C)O3)c3c(Br)cccc32)cc1 (some centres not stated) in this assay?
n

Could you please tell me the result logged for CCOC(=O)NN=C1C[C@@H](O)[C@@H](O)[C@@H]2[C@H]3C(=O)N(c4cccc(Oc5ccccc5)c4)C(=O)[C@@H]3CC[C@@H]12 in this assay?
n

Could you please tell me the result logged for COC1=C[C@H](C(=O)NCc2ccccc2)[C@H](C)[C@@H](c2ccccc2)CC1=O in this assay?
n

Could you please tell me the result logged for O=C1[C@@H]2[C@H]3[C@H](O)[C@H](O)CC(=NOC[C@@H](O)COCc4ccco4)[C@@H]3CC[C@H]2C(=O)N1C[C@@H]1CCCO1 in this assay?
n

----------
biological target: Muscarinic acetylcholine receptor M1 (Rattus norvegicus); assay: qHTS Assay for Antagonists of Acetylcholine Muscarinic M1 Receptor: Kinetic Measurement of Intracellular Calcium Response (AID 943); conditions: M1-expressing cells, kinetic intracellular calcium fluorescence; series mostly up to 35.3 µM; note: nearly all actives have a fitted effect of over 75% in size
Results filed as inconclusive are left out. The source made the active and inactive calls. The call rests on the fitted dose curve; in most records, active means well fitted inhibition curve with a large enough effect; inconclusive means small, poorly fitted or top-dose-only effect; inactive means no such curve, though single readings can be large or run the other way.
Tick one outcome: active, inactive

Could you please tell me the result logged for CNCC[C@H](Oc1ccccc1OC)c1ccccc1 in this assay?
active

Could you please tell me the result logged for N[C@H](Cc1ccc(Cl)cc1)C(=O)O in this assay?
inactive

Could you please tell me the result logged for O=C1N=C(O)CN1/N=C\c1ccc(-c2ccc([N+](=O)[O-])cc2)o1 in this assay?
inactive

Could you please tell me the result logged for CC#CCOC(=O)c1c(C)nc2sc3c(c2c1N)CC[C@@H](O)C3 in this assay?
active

Could you please tell me the result logged for C[N+](C)(C)CCC(=O)c1cccc2ccccc12 in this assay?
inactive

Could you please tell me the result logged for C[C@]12CC3CC(N)(C1)C[C@@](C)(C3)C2 in this assay?
inactive

Could you please tell me the result logged for COC(=O)c1c(-c2cc(OC)c(OC)c(OC)c2)c2ccnc(OCc3ncccn3)c2c(=O)n1Cc1ccnc(C)c1 in this assay?
inactive

Could you please tell me the result logged for O=C(O)[C@H]1CN(CCCP(=O)(O)O)CCN1 in this assay?
inactive

Could you please tell me the result logged for S=C(Nc1ccccc1)Nc1nccs1 in this assay?
inactive

Could you please tell me the result logged for Nc1c(S(=O)(=O)O)cc(Nc2ccc(Nc3nc(Cl)nc(Nc4ccc(S(=O)(=O)O)cc4)n3)c(S(=O)(=O)O)c2)c2c1C(=O)c1ccccc1C2=O in this assay?
inactive

Could you please tell me the result logged for COC(=O)C1=C(C)NC(C)=C([N+](=O)[O-])[C@H]1c1ccccc1C(F)(F)F in this assay?
inactive

Could you please tell me the result logged for NC[C@](O)(CS(=O)(=O)O)c1ccc(Cl)cc1 in this assay?
inactive
